Target: E3 ubiquitin-protein ligase Mdm2 (Homo sapiens, UniProt Q00987)
Sequence (Q00987 whole entry, the tested form may be a part): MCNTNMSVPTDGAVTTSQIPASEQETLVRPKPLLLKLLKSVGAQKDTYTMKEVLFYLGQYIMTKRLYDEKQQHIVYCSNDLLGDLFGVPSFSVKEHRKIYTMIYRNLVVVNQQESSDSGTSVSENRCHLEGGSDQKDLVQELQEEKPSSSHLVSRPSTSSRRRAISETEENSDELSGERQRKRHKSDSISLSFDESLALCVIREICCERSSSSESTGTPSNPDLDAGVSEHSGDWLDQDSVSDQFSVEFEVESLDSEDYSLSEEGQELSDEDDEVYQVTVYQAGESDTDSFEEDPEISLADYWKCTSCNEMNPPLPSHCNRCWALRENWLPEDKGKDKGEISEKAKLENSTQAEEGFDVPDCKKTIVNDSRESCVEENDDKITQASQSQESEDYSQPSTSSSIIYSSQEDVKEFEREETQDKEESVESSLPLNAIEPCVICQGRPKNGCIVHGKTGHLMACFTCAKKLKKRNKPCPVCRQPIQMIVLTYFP
Assay: Binding affinity to recombinant human MDM2 (1 to 118 residues) expressed in Escherichia coli BL21 (DE3) assessed as reduction in tryptophan fluorescence by microscale thermophoresis method
property measured: pKd
Answer as the number alone; pKd is minus log10 of concentration in mol/L.

Prompt: I am curious: what pKd value has been reported for CN1C(=O)C(Cc2ccc(Cl)cc2)=C(c2c[nH]c3cc(Cl)ccc23)[C@]1(O)Cc1ccc(Cl)cc1 ?
Response: 6.30

Each recorded value in this set is attributed to ChEMBL document CHEMBL4265913.
